subject_of_test: RXRα–NURR1 heterodimer (Homo sapiens)
procedure_details: BRET2 heterodimerization assay
Listed below: EC50 values for each entry.

Give the reported EC50 for C=CCc1ccc(OCCCCCC)c(-c2cc(/C=C/C(=O)O)ccc2O)c1 (system: RXRα–NURR1 heterodimer (Homo sapiens)).
> 10000 nM

Give the reported EC50 for O=C(O)/C=C/c1ccc(O)c(-c2cccc(-c3ccccc3)c2)c1 (system: RXRα–NURR1 heterodimer (Homo sapiens)).
3.16 nM

Give the reported EC50 for O=C(O)/C=C/c1ccc(O)c(-c2cccc(Cc3ccccc3)c2)c1 (system: RXRα–NURR1 heterodimer (Homo sapiens)).
2.51 nM

###

Listed below: EC50 values for each entry.
subject_of_test: RXRα–RXRα homodimer (Homo sapiens, UniProt P19793)
procedure_details: BRET2 homodimerization assay
Could you give me the number in nM? Just the number is fine.

* O=C(O)/C=C/c1ccc(O)c(-c2cccc(Cc3ccccc3)c2)c1 | 20
* Cc1ccc(-c2ccccc2)cc1-c1cc(/C=C/C(=O)O)ccc1O | 31.6
* CCCc1cccc(-c2cc(/C=C/C(=O)O)ccc2O)c1 | 100
* O=C(O)/C=C/c1ccc(O)c(-c2cccc(-c3ccccc3)c2)c1 | 31.6
* Cc1c(-c2ccccc2)cccc1-c1cc(/C=C/C(=O)O)ccc1O | 158

Now let's try a different one.
If you can, please state the reported EC50 value of C=CCc1ccc(OCCC)c(-c2cc(/C=C/C(=O)O)ccc2O)c1 .
20

###

Listed below: pEC50 values for each entry.
subject_of_test: RXRα (Homo sapiens, UniProt P19793)
procedure_details: Mammalian two-hybrid
Type: cell-based
Sequence (P19793 whole entry): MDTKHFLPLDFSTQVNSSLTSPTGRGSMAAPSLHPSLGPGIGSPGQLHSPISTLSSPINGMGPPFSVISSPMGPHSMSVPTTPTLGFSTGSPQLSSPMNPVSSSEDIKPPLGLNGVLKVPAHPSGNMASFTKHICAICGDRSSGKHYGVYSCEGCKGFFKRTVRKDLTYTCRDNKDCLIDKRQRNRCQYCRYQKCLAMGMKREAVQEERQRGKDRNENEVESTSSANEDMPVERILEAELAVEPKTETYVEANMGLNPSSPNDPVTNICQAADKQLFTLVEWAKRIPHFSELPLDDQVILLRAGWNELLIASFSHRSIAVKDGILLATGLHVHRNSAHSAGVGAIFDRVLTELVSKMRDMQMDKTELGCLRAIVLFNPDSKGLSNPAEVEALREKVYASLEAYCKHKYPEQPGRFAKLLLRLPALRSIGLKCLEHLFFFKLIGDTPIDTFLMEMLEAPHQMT
Scale explanation: pEC50 corresponds to minus log10 of a concentration expressed in moles per litre.

Give the reported pEC50 for O=C(O)/C=C/c1ccc(O)c(-c2cccc(Cc3ccccc3)c2)c1 (system: RXRα (Homo sapiens, UniProt P19793)).
7.04

Give the reported pEC50 for O=C(O)/C=C/c1ccc(O)c(-c2cccc(-c3ccccc3)c2)c1 (system: RXRα (Homo sapiens, UniProt P19793)).
7.07

Give the reported pEC50 for CC(C)c1cccc(-c2cc(/C=C/C(=O)O)ccc2O)c1 (system: RXRα (Homo sapiens, UniProt P19793)).
8.24

Give the reported pEC50 for CCCc1cccc(-c2cc(/C=C/C(=O)O)ccc2O)c1 (system: RXRα (Homo sapiens, UniProt P19793)).
7.74

###

subject_of_test: UniProt P19793
procedure_details: Fluorescence polarization
Type: biochemical
run_parameters: FP/EC50, His6-RXRα-LBD 1 μM, fluorescein-labeled D22 coactivator peptide 0.1 μM
Listed below: EC50 values for each entry.
Please append the unit to your numeric answer.

Example cases with answers are listed next.
• O=C(O)/C=C/c1ccc(O)c(-c2cccc(Cc3ccccc3)c2)c1 = 142 nM
• Cc1ccc(-c2ccccc2)cc1-c1cc(/C=C/C(=O)O)ccc1O = 1020 nM
• CCCc1cccc(-c2cc(/C=C/C(=O)O)ccc2O)c1 = 170 nM
• Cc1c(-c2ccccc2)cccc1-c1cc(/C=C/C(=O)O)ccc1O = 9900 nM
• CC(C)c1cccc(-c2cc(/C=C/C(=O)O)ccc2O)c1 = 89 nM

Now let's try a different one.
Give the reported EC50 for O=C(O)/C=C/c1ccc(O)c(-c2cccc(-c3ccccc3)c2)c1 (system: UniProt P19793).
140 nM

###

subject_of_test: RXRα (Homo sapiens, UniProt P19793)
Sequence (P19793 227-458 limits assumed): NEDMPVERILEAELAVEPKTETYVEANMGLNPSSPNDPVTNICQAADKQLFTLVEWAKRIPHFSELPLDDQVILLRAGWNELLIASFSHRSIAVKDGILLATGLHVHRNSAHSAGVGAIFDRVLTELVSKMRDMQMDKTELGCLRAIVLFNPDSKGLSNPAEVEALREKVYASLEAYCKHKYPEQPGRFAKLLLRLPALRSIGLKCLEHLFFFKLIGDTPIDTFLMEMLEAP
Listed below: pIC50 values for each entry.
Scale explanation: pIC50 corresponds to minus log10 of a concentration expressed in moles per litre.

* C=CCc1ccc(OCCCCCC)c(-c2cc(/C=C/C(=O)O)ccc2O)c1 [ligand 10] | 4.33

If you can, please state the reported pIC50 value of C=CCc1ccc(OCCC)c(-c2cc(/C=C/C(=O)O)ccc2O)c1 [ligand 9] .
4.31

###

subject_of_test: RXRα–NURR1 heterodimer (Homo sapiens, UniProt P19793)
procedure_details: BRET2 heterodimerization assay
run_parameters: BRET2 potency ratio heterodimer vs homodimer
assay_metric: NURR1–RXRα vs RXRα–RXRα selectivity (fold)
Could you give me the number in fold? Just the number is fine.

Example cases with answers are listed next.
* O=C(O)/C=C/c1ccc(O)c(-c2cccc(Cc3ccccc3)c2)c1 [ligand 3] | 8
* CCCc1cccc(-c2cc(/C=C/C(=O)O)ccc2O)c1 [ligand 5] | 20
* O=C(O)/C=C/c1ccc(O)c(-c2cccc(-c3ccccc3)c2)c1 [ligand 2] | 10

If you can, please state the reported NURR1–RXRα vs RXRα–RXRα selectivity value of Cc1ccc(-c2ccccc2)cc1-c1cc(/C=C/C(=O)O)ccc1O [ligand 7] .
0.4

###

subject_of_test: RXRα–NURR1 heterodimer (Homo sapiens)
procedure_details: BRET2 heterodimerization assay
pEC50: −log10 of the molar value.
Decide using pEC50: a value greater than or equal to 7 is 1, a smaller one is -1.

Worked set:
* CC(C)c1cccc(-c2cc(/C=C/C(=O)O)ccc2O)c1 [ligand 4] | 1
* Cc1c(-c2ccccc2)cccc1-c1cc(/C=C/C(=O)O)ccc1O [ligand 6] | -1

For this compound, is measured pEC50 7 or higher? CCCc1cccc(-c2cc(/C=C/C(=O)O)ccc2O)c1 [ligand 5]
1

###

subject_of_test: RXRα–NURR1 heterodimer (Homo sapiens, UniProt P19793)
procedure_details: BRET2 heterodimerization assay
run_parameters: BRET2 potency ratio heterodimer vs homodimer
assay_metric: NURR1–RXRα vs RXRα–RXRα selectivity (fold)
Could you give me the number in fold? Just the number is fine.

Example cases with answers are listed next.
- CC(C)c1cccc(-c2cc(/C=C/C(=O)O)ccc2O)c1: 25
- C=CCc1ccc(OCCC)c(-c2cc(/C=C/C(=O)O)ccc2O)c1: 0.1

Now let's try a different one.
If you can, please state the reported NURR1–RXRα vs RXRα–RXRα selectivity value of Cc1c(-c2ccccc2)cccc1-c1cc(/C=C/C(=O)O)ccc1O .
0.2
